pIC50: −log10 of the molar value.
Measured pIC50 (UniProt:P35968)
Sequence (P35968 20-1356): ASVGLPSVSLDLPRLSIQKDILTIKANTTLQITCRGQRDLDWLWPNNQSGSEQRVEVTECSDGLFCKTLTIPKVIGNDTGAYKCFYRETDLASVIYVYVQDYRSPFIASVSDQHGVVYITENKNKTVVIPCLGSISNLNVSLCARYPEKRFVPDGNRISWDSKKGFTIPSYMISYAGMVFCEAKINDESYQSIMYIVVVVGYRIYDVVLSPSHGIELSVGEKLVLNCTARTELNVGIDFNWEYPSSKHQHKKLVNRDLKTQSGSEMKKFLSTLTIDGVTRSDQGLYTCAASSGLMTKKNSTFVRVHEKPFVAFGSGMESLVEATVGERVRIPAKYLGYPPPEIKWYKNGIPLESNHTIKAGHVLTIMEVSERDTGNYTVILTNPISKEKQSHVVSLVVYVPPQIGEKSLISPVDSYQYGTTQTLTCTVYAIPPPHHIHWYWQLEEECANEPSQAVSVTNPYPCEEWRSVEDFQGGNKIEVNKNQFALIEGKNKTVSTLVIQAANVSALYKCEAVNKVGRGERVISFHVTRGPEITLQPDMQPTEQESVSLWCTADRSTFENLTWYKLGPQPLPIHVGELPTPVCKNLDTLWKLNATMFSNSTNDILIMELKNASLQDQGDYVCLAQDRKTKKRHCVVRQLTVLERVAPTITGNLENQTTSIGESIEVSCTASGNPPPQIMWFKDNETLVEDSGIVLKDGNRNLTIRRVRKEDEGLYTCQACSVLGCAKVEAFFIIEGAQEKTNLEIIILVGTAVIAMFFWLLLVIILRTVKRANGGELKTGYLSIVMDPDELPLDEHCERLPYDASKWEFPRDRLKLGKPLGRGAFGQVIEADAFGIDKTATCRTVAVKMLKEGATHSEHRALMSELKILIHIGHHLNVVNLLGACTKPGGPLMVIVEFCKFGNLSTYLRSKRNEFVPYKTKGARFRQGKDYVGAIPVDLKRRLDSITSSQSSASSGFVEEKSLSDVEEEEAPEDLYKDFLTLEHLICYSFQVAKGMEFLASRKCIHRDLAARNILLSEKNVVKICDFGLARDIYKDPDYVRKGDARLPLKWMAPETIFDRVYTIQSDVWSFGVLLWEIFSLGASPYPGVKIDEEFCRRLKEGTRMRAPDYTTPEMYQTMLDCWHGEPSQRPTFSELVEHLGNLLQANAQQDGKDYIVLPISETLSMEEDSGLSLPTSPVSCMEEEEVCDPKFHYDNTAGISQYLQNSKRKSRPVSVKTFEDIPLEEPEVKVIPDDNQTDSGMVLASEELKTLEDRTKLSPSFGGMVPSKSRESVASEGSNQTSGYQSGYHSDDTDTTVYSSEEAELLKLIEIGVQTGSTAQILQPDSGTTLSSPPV

Sample records with pIC50:
{"structure-notation": "CC(C)(O)COc1cc(-c2ccc(N3C[C@@H]4C[C@@](C)(NC(=O)c5ncccc5Cl)C[C@@H]4C3)nc2)c2c(C#N)cnn2c1", "result": "< 7.00"}
{"structure-notation": "COc1ccc(C(=O)N2C[C@@H]3CN(c4ccc(-c5cc(-c6cnn(C)c6)cn6ncc(C#N)c56)cn4)C[C@@H]3C2)cn1", "result": "7.30 to 8.00"}
{"structure-notation": "COc1ccc(C(=O)N[C@]2(C)C[C@H]3CN(c4ccc(-c5cc(-c6cnn(C)c6)cn6ncc(C#N)c56)cn4)C[C@H]3C2)cn1", "result": "≥ 8.00"}

Inquiry: Recorded pIC50 of CCOc1cc(-c2cnc(N3C[C@H]4C[C@H](NC(=O)c5ncccc5Cl)C[C@H]4C3)cn2)c2c(C#N)cnn2c1 , please.
Reply text: < 7.00

Inquiry: Same for CCOc1cc(-c2ccc(N3C[C@@H]4[C@H](C3)[C@@H]4NC(=O)c3ncccc3Cl)nc2)c2c(C#N)cnn2c1
Reply text: < 7.00

Inquiry: Same for Cn1cc(-c2cc(-c3ccc(N4C[C@H]5CN(C(=O)c6c(F)cccc6Cl)C[C@H]5C4)nc3)c3c(C#N)cnn3c2)cn1
Reply text: ≥ 8.00

Inquiry: Same for Cn1cc(-c2cc(-c3ccc(N4C5CC6CC4CC(N)(C6)C5)nc3)c3c(C#N)cnn3c2)cn1
Reply text: ≥ 8.00

Inquiry: Same for CC(C)(O)COc1cc(-c2ccc(N3C[C@H]4CN(C(=O)c5ncccc5Cl)C[C@H]4C3)nc2)c2c(C#N)cnn2c1
Reply text: < 7.00

Inquiry: Same for CCOc1cc(-c2ccc(N3C[C@@H]4C[C@@](C)(NC(=O)c5ncccc5C(F)(F)F)C[C@@H]4C3)nc2)c2c(C#N)cnn2c1
Reply text: 7.00 to 7.30

Inquiry: Same for CC(C)(O)COc1cc(-c2ccc(N3C[C@@H]4C[C@@](C)(NS(=O)(=O)c5c(F)cccc5Cl)C[C@@H]4C3)nc2)c2c(C#N)cnn2c1
Reply text: 7.30 to 8.00

Inquiry: Same for CC(C)C(=O)N1C[C@@H]2CN(c3ccc(-c4cc(-c5cnn(C)c5)cn5ncc(C#N)c45)cn3)C[C@@H]2C1
Reply text: 7.30 to 8.00

Inquiry: Same for CC(C)(O)COc1cc(-c2ccc(N3C4CC5CC3CC(NC(=O)c3ncccc3Cl)(C5)C4)nc2)c2c(C#N)cnn2c1
Reply text: 7.30 to 8.00

Inquiry: Same for COc1ccc(C(=O)N[C@]2(C)C[C@H]3CN(c4ccc(-c5cc(OCC(C)(C)O)cn6ncc(C#N)c56)cn4)C[C@H]3C2)cn1
Reply text: 7.30 to 8.00

* * *

Target: human RET kinase (Homo sapiens)
attribute-measured: IC50

{"compound": "COc1ccc(CC(=O)N[C@H]2[C@@H]3CN(c4ccc(-c5cc(OCC(C)(C)O)cn6ncc(C#N)c56)cn4)C[C@@H]32)cn1", "test-system": "human RET kinase (Homo sapiens)", "IC50": "50 to 100 nM"}

Now turn to the next compound.
Inquiry: Recorded IC50 of COc1cc(C(=O)N[C@]2(C)C[C@H]3CN(c4cnc(-c5cc(-c6cnn(C)c6)cn6ncc(C#N)c56)cn4)C[C@H]3C2)ccn1 , please.
Reply text: ≤ 10 nM

* * *

GI50 overview
Target: BAF3-KIF5B-RET cells (Homo sapiens)
Construct: fused on or other part: P33176 (Kinesin-1 heavy chain)
Sequence (P07949 whole entry, change not shown, the tested form may be a part): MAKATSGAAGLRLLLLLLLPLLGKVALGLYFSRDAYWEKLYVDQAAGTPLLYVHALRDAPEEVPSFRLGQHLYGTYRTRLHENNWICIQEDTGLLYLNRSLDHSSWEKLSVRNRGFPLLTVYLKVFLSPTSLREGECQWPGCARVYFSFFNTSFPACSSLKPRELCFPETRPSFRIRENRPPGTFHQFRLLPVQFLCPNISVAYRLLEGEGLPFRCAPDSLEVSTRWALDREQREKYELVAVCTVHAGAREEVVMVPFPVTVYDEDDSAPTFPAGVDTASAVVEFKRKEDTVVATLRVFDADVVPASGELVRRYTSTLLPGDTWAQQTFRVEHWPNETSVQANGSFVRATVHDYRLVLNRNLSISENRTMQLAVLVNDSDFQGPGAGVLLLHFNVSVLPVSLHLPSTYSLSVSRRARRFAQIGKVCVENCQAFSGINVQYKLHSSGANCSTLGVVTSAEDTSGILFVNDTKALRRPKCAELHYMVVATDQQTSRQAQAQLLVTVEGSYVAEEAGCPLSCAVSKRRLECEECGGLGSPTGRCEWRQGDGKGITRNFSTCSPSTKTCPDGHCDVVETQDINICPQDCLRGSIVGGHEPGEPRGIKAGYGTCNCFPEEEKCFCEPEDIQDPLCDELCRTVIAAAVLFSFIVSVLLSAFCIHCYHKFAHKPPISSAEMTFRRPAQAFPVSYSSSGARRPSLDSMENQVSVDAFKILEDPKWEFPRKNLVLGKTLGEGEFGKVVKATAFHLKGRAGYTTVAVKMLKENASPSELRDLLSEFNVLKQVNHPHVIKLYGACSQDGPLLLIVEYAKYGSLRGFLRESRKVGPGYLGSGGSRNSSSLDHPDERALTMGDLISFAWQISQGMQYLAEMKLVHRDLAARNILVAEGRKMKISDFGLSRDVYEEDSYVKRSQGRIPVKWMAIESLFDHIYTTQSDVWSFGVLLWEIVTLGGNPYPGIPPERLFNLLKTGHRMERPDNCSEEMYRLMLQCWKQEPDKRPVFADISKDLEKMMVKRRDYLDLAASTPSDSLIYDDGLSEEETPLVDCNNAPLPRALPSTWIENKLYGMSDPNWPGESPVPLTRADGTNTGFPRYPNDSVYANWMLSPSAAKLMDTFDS
Test: BAF3-KIF5B-RET Cell proliferation assay (CellTiter-Glo, 72 hours)
Assay type: cell-based
Settings: growth inhibition, read-out: BA/F3-KIF5B-RET Cellular activity
Procedure: Compounds disclosed herein were tested for the inhibition of RET by a cancer cell proliferation assay commonly known as CellTiter-Glo assay. In this assay, a complete media was prepared by adding 10% fetal bovine serum to RPMI-1640 medium (Life technology) for BAF3-FIF5B-RET cells. […] Record luminescence on Paradigm. Cell viability (CV %) was calculated relative to vehicle (DMSO) treated control wells. The IC50 was calculated using GraphPad Prism.

{"compound": "COc1ccc(CC(=O)N[C@H]2[C@@H]3CN(c4ccc(-c5cc(OCC(C)(C)O)cn6ncc(C#N)c56)cn4)C[C@@H]32)cn1", "GI50": "> 0.1 µM"}

Inquiry: Recorded GI50 of Cn1cc(-c2cc(-c3ccc(N4C[C@@H]5C[C@@](O)(Cc6ccccn6)C[C@@H]5C4)nc3)c3c(C#N)cnn3c2)cn1 , please.
Reply text: 0.01 to 0.05 µM

Inquiry: Same for COc1ccc(C(C)N2C[C@H]3CN(c4cnc(-c5cc(OCC(C)(C)O)cn6ncc(C#N)c56)cn4)C[C@H]3C2)cn1 (stereo partly shown)
Reply text: > 0.1 µM

Inquiry: Same for C[C@@]1(NC(=O)c2ncccc2Cl)C[C@H]2CN(c3ccc(-c4cc(OCC5CNCCO5)cn5ncc(C#N)c45)cn3)C[C@H]2C1 (stereo partly shown)
Reply text: ≤ 0.01 µM

Inquiry: Same for COc1ccc(CN[C@]2(C)C[C@H]3CN(c4cnc(-c5cc(-c6cnn(C)c6)cn6ncc(C#N)c56)cn4)C[C@H]3C2)cn1
Reply text: 0.05 to 0.1 µM

Inquiry: Same for CC(C)(O)COc1cc(-c2cnc(N3C[C@@H]4C[C@@](C)(NC(=O)c5ncccc5Cl)C[C@@H]4C3)cn2)c2c(C#N)cnn2c1
Reply text: 0.01 to 0.05 µM

Inquiry: Same for CC(C)(O)COc1cc(-c2ccc(N3C4CC5CC3CC(NC(=O)c3ncccc3Cl)(C5)C4)nc2)c2c(C#N)cnn2c1
Reply text: ≤ 0.01 µM

* * *

pIC50 overview
Target: human RET kinase (Homo sapiens, UniProt P07949)
Sequence (P07949 29-1114): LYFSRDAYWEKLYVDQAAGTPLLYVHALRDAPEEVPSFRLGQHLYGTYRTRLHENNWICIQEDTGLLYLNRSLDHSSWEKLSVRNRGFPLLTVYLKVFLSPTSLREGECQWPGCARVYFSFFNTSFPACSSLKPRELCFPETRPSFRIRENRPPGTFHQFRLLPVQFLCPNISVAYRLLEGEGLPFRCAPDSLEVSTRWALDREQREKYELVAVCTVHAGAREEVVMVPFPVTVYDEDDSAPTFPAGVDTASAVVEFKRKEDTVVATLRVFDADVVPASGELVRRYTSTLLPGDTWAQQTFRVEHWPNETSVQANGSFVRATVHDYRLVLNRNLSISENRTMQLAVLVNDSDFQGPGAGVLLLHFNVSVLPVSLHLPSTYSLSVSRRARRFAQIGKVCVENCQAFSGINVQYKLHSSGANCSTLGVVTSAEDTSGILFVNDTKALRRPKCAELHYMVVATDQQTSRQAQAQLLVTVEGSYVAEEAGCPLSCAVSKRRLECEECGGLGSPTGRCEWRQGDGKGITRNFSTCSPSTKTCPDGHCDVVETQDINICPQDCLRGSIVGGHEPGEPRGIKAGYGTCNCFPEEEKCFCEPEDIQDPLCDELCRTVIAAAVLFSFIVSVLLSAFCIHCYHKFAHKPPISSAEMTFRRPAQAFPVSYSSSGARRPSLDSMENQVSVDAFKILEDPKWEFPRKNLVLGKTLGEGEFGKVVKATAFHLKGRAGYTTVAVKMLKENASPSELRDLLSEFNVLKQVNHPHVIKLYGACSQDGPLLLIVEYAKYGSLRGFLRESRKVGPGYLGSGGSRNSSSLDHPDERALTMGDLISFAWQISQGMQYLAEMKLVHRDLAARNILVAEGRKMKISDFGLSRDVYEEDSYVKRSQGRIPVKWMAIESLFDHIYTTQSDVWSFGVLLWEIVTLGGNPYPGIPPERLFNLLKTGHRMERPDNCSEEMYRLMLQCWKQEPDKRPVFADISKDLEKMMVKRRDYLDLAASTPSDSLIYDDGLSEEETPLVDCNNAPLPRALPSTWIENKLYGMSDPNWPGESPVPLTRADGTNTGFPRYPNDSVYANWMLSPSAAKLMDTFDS
pIC50: −log10 of the molar value.

Sample records with pIC50:
{"molecule": "Cn1cc(-c2cc(-c3ccc(N4C5CC6CC4CC(C(=O)Nc4ncccc4Cl)(C6)C5)nc3)c3c(C#N)cnn3c2)cn1", "test-system": "human RET kinase (Homo sapiens, UniProt P07949)", "pIC50": "≥ 8.00"}
{"molecule": "CC(C)C(O)C(=O)NC[C@@H]1[C@H]2CN(c3ccc(-c4cc(-c5cnn(C)c5)cn5ncc(C#N)c45)cn3)C[C@@H]12 (stereo partly drawn)", "test-system": "human RET kinase (Homo sapiens, UniProt P07949)", "pIC50": "≥ 8.00"}

Inquiry: Recorded pIC50 of CCOc1cc(-c2ccc(N3C[C@@H]4C[C@@](C)(NC(=O)c5ncccc5C(F)(F)F)C[C@@H]4C3)nc2)c2c(C#N)cnn2c1 , please.
Reply text: ≥ 8.00

Inquiry: Same for COc1cc(-c2ccc(N3C[C@@H]4C[C@@](C)(NC(=O)c5ncccc5Cl)C[C@@H]4C3)nc2)c2c(C#N)cnn2c1
Reply text: ≥ 8.00

Inquiry: Same for CCOc1cc(-c2ccc(N3C[C@@H]4C[C@@](C)(NC(=O)c5nc(C)ccc5Cl)C[C@@H]4C3)nc2)c2c(C#N)cnn2c1
Reply text: ≥ 8.00

Inquiry: Same for Cn1cc(-c2cc(-c3ccc(N4C[C@@H]5[C@@H](CNS(=O)(=O)c6c(F)cccc6Cl)[C@@H]5C4)nc3)c3c(C#N)cnn3c2)cn1
Reply text: ≥ 8.00

Inquiry: Same for Cn1cc(-c2cc(-c3ccc(N4C[C@@H]5[C@@H](CNC(=O)c6ncccc6C(F)(F)F)[C@@H]5C4)nc3)c3c(C#N)cnn3c2)cn1
Reply text: ≥ 8.00

Inquiry: Same for Cn1cc(-c2cc(-c3ccc(N4C[C@@H]5[C@H](C4)[C@H]5NC(=O)[C@H](O)c4ccccc4)nc3)c3c(C#N)cnn3c2)cn1
Reply text: ≥ 8.00

Inquiry: Same for CC(C)(O)COc1cc(-c2cnc(N3C4CC5CC3CC(NC(=O)c3ncccc3F)(C5)C4)cn2)c2c(C#N)cnn2c1
Reply text: ≥ 8.00

Inquiry: Same for COc1ccc(NC(=O)C23CC4CC(C2)N(c2ccc(-c5cc(-c6cnn(C)c6)cn6ncc(C#N)c56)cn2)C(C4)C3)cn1
Reply text: ≥ 8.00

Inquiry: Same for CCOc1cc(-c2ccc(N3C[C@@H]4C[C@@](C)(NC(=O)CC(C)C)C[C@@H]4C3)nc2)c2c(C#N)cnn2c1
Reply text: ≥ 8.00

Inquiry: Same for Cc1cccc(Cl)c1C(=O)N[C@H]1[C@@H]2CN(c3ccc(-c4cc(-c5cnn(C)c5)cn5ncc(C#N)c45)cn3)C[C@@H]21
Reply text: ≥ 8.00

* * *

GI50 overview
Biological target: BAF3-KIF5B-RET cells (Homo sapiens)
Construct: fused on or other part: P33176 (Kinesin-1 heavy chain)
Assay: BAF3-KIF5B-RET Cell proliferation assay (CellTiter-Glo, 72 hours)
Type: cell-based
Settings: growth inhibition, read-out: BA/F3-KIF5B-RET Cellular activity

{"molecule": "Cn1cc(-c2cc(-c3ccc(N4C[C@@H]5[C@H](C4)[C@H]5NS(=O)(=O)c4c(F)cccc4Cl)nc3)c3c(C#N)cnn3c2)cn1 [Example 46]", "attribute-measured": "GI50", "result": "≤ 10 nM"}
{"molecule": "CCOc1cc(-c2cnc(N3C4CC5CC3CC(NC(=O)c3ccc(OC)nc3)(C5)C4)cn2)c2c(C#N)cnn2c1 [Example 167]", "attribute-measured": "GI50", "result": "50 to 100 nM"}

Inquiry: Recorded GI50 of CCOc1cc(-c2ccc(N3C4CC5CC3CC(NC(=O)c3ncccc3Cl)(C5)C4)nc2)c2c(C#N)cnn2c1 [Example 136] , please.
Reply text: ≤ 10 nM

Inquiry: Same for CC(C)(O)COc1cc(-c2cnc(N3C[C@@H]4C[C@@](C)(NC(=O)c5c(F)cccc5Cl)C[C@@H]4C3)cn2)c2c(C#N)cnn2c1 [Example 144]
Reply text: ≤ 10 nM

Inquiry: Same for CC(C)(O)COc1cc(-c2cnc(N3C4CC5CC3CC(NC=O)(C5)C4)cn2)c2c(C#N)cnn2c1 [Example 160]
Reply text: > 100 nM

Inquiry: Same for COc1cc(C(=O)NC[C@@H]2[C@H]3CN(c4ccc(-c5cc(-c6cnn(C)c6)cn6ncc(C#N)c56)cn4)C[C@@H]23)ccn1 [Example 194]
Reply text: 10 to 50 nM

Inquiry: Same for CC(C)(O)COc1cc(-c2cnc(N3C4CC5CC3CC(NC(=O)c3ncccc3F)(C5)C4)cn2)c2c(C#N)cnn2c1 [Example 168]
Reply text: 10 to 50 nM

Inquiry: Same for Cn1cc(-c2cc(-c3cnc(N4C5CC6CC4CC(N)(C6)C5)cn3)c3c(C#N)cnn3c2)cn1 [Example 108]
Reply text: 10 to 50 nM

Inquiry: Same for Cn1cc(-c2cc(-c3ccc(N4C[C@@H]5C[C@@](C)(NC(=O)c6ncccc6Cl)C[C@@H]5C4)nc3)c3c(C#N)cnn3c2)cn1 [Example 55]
Reply text: ≤ 10 nM

Inquiry: Same for COc1ccc(C(=O)NC[C@@H]2[C@H]3CN(c4cnc(-c5cc(-c6cnn(C)c6)cn6ncc(C#N)c56)cn4)C[C@@H]23)cn1 [Example 156]
Reply text: 10 to 50 nM
